- Assay System: T1, GIP Receptor (Homo sapiens, UniProt P48546)
- T1 construct: host or cells: HEK293T
- T1 sequence (P48546 22-466): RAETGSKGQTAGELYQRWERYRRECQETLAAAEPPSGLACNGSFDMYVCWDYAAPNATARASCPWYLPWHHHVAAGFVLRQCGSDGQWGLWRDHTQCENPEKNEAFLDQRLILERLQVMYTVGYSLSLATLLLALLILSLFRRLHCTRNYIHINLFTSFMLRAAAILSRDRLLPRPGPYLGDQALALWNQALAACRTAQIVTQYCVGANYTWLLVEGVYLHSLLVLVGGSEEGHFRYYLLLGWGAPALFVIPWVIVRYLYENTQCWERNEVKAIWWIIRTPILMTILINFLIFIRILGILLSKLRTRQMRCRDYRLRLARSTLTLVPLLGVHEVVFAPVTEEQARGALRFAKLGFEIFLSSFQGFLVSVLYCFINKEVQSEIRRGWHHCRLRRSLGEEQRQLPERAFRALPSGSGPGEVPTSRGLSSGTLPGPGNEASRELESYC
- Test Name: GIP receptor-mediated bioluminescence in HEK293T cells with chimeric promiscuous G protein (FIG. 5, Table II)
- Assay type: cell-based
- Details: HEK293T cells, GIP Receptor + promiscuous G protein; luminescence vs GIP concentration
Property: pEC50
Hey, just a heads up that pEC50 is the negative log base 10 of the concentration in molar.

In plain terms, Cyto-aequorin: Wild-type Aequorin (wt-Aequorin) amino acid sequence, SEQ ID NO:2; cytosolic (protein, listed as Aequorea victoria) MTSKQYSVKLTSDFDNPRWIGRHKHMFNFLDVNHNGKISLDEMVYKASDIVINNLGATPEQAKRHKDAVEAFFGGAGMKYGVETDWPAYIEGWKKLATDELEKYAKNEPTLIRIWGDALFDIVDKDQNGAITLDEWKAYTKAAGIIQSSEDCEETFRVCDIDESGQLDVDEMTRQHLGFWYTMDPACEKLYGGAVP has a documented pEC50 of 8.18
